Test: Pharmacokinetics of almonertinib in rats, alone and after multiple doses of rivaroxaban or apixaban
Format: in vivo, Sprague-Dawley (SD) rats
Conditions: male, Sprague-Dawley, rat, plasma, po, 15 mg/kg, rats, oral almonertinib 15 mg/kg alone (group 3, control solvent of rivaroxaban), mean ± SD, n = 6; read-out: MRT0-∞
Protocol: Chromatographic separation was performed using an XSelect HSS T3 column (2.1 mm × 100 mm, 2.5 µm, Waters, Milford, MA, United States) at 40°C by gradient elution. The mobile phase consisted of water (A) and acetonitrile (0.1% formic acid, B). […] The flow rate was 0.35 mL min^−1, and the injection volume was 6 µL. The positive ion mode with multiple reaction detection was used. […]
MEASURED PROPERTY: MRT inf (h)

SAMPLE SMILES: C=CC(=O)Nc1cc(Nc2nccc(-c3cn(C4CC4)c4ccccc34)n2)c(OC)cc1N(C)CCN(C)C
MEASURED PROPERTY: MRT inf
DISPLAY UNIT: h
DATA VALUE: 5.03
